The origin of these recorded values is patent US5705523A.

System: thromboxane A2 synthetase (Homo sapiens, UniProt P24557)
Construct: Indomethacin pretreated human platelet microsomes
Sequence (P24557 whole entry): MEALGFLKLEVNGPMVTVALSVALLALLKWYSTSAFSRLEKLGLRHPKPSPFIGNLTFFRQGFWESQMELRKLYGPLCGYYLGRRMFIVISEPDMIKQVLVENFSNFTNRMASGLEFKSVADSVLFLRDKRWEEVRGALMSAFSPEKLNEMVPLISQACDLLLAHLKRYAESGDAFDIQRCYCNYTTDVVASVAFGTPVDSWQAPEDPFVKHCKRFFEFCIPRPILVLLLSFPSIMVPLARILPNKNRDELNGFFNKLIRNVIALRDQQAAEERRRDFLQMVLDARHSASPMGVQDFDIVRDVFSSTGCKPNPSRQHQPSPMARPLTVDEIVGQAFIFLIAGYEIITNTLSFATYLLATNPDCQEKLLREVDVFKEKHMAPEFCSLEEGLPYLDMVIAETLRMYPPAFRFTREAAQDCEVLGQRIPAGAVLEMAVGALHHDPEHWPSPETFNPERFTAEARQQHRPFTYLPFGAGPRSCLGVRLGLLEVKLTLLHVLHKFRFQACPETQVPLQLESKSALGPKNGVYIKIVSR
Protocol Text: Thromboxane A2 (T×A2) synthetase inhibition (T×B2 production, radioimmunoassay)
Test Settings: human platelet microsomes, in vitro; read-out: T×A2 synthetase inhibitory activity: IC50
Experimental Readout: IC50
// unit must come after the numeric part

Record excerpt, results attached:
Compound	IC50
O=C(O)CCc1cc(CCNS(=O)(=O)c2ccc(Br)cc2)cc(Cc2cccnc2)c1	0.049 µM
CC(c1cccnc1)c1cc(CCNS(=O)(=O)c2ccc(Cl)cc2)cc(CCC(=O)O)c1 (centres unmarked)	0.038 µM
O=C(O)CCc1cc(CCNS(=O)(=O)c2ccccc2)cc(Oc2cccnc2)c1	0.038 µM
CC(O)(c1cccnc1)c1cc(CCNS(=O)(=O)c2ccc(Cl)cc2)cc(CCC(=O)O)c1 (centres unmarked)	0.061 µM

Value of measured IC50 for the entry O=C(O)CCc1cc(CCNS(=O)(=O)c2ccc(Cl)cc2)cc(Oc2cccnc2)c1 : 0.037 µM
